biological target: LZK (Homo sapiens (Human), UniProt O43283)
Sequence (O43283 168-409): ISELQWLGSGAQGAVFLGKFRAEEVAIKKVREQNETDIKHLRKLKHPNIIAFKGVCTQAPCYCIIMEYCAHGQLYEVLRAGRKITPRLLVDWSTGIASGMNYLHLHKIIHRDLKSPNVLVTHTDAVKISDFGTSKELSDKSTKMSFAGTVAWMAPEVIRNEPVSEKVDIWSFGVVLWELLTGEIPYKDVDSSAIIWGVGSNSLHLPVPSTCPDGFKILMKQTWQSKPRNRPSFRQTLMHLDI
QUANTITY NAME: IC50 (µM)

Some solved cases for reference:
MOLECULE: Nc1nc2ccc(-c3csc(C(=O)NCc4ncco4)c3)cn2n1 [Compound 239]
TGT: LZK (Homo sapiens (Human), UniProt O43283)
IC50 (µM): 18
//
MOLECULE: CC[C@H](NC(=O)c1cc(-c2cc(C(=O)N[C@H]3CCOC3)n3nc(N)nc3c2)cs1)c1ccc(F)cc1 [Compound 162]
TGT: LZK (Homo sapiens (Human), UniProt O43283)
IC50 (µM): 0.077
//
MOLECULE: Nc1nc2c(C(=O)NC3CC3)cc(-c3csc(C(=O)NCc4ccc(F)cc4)c3)cn2n1 [Compound 46]
TGT: LZK (Homo sapiens (Human), UniProt O43283)
IC50 (µM): 1.2
//
MOLECULE: CC(NC(=O)c1cc(-c2ccc3nc(N)nn3c2)cs1)c1nccn1C (stereo not shown) [Compound 350]
TGT: LZK (Homo sapiens (Human), UniProt O43283)
IC50 (µM): 20.5
//
MOLECULE: CCn1ccc(C(C)NC(=O)c2cc(-c3ccc4nc(N)nn4c3)cs2)n1 (stereo not shown) [Compound 331]
TGT: LZK (Homo sapiens (Human), UniProt O43283)
IC50 (µM): 13
//
MOLECULE: COC[C@H](NC(=O)c1cc(-c2cc(C(=O)NC(C)C)c3nc(N)nn3c2)cs1)c1ccc(F)cc1 [Compound 130]
TGT: LZK (Homo sapiens (Human), UniProt O43283)
IC50 (µM): 0.12
//
MOLECULE: Nc1nc2cc(-c3csc(C(=O)NCc4ccc(F)cc4)c3)ccn2n1 [Compound 363]
TGT: LZK (Homo sapiens (Human), UniProt O43283)
IC50 (µM): 8.7
//
MOLECULE: C[C@H](NC(=O)c1cc(-c2cc(C(=O)NC(C)(C)CO)c3nc(N)nn3c2)cs1)c1ccccc1 [Compound 79]
TGT: LZK (Homo sapiens (Human), UniProt O43283)
IC50 (µM): 0.21
//
MOLECULE: COc1cccc(C2(NC(=O)c3cc(-c4ccc5nc(N)nn5c4)cs3)CC2)c1 [Compound 291]
TGT: LZK (Homo sapiens (Human), UniProt O43283)
IC50 (µM): 14
//
MOLECULE: Cc1cc(-c2csc(C(=O)NCc3ccc(F)cc3)c2)cn2nc(N)nc12 [Compound 371]
TGT: LZK (Homo sapiens (Human), UniProt O43283)
IC50 (µM): 2.3

P = Cc1cc(-c2csc(C(=O)NCc3ccccc3)c2)cn2nc(N)nc12 [Compound 373]
Q = CC(C)NC(=O)c1cc(-c2csc(C(=O)NC3CC(C)(C)Oc4ccccc43)c2)cn2nc(N)nc12 (stereo not shown) [Compound 132]
R = Nc1nc2ccc(-c3csc(C(=O)NCc4ccc5c(c4)OCO5)c3)cn2n1 [Compound 295]
Arrange by IC50, high to low. Please list the labels in the order you were asked to rank them. R, P, Q

Sourced from patent US20230382904A1
